- Measured On: human CXCR3A (Homo sapiens (Human), UniProt P49682)
- Sequence (P49682 whole entry): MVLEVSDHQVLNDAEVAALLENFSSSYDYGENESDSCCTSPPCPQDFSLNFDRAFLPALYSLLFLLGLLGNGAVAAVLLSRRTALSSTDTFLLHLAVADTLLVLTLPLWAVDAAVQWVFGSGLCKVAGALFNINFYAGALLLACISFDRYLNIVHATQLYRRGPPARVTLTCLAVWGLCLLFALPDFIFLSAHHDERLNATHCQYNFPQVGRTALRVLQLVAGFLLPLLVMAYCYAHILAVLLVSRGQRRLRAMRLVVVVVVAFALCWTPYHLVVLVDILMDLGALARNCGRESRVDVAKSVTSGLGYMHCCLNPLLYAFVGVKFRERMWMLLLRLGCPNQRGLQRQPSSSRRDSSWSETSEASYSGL
- Experiment Description: FLIPR assay
- Measurement Context: CHO-K1 cells expressing the human CXCR3A coupled to Galpha(16); CXCL10 agonist 20 nM; Fluo-4-AM fluorescence; mean values if determined several times
Metric: log10(IC50) (log10 of the value in nM)

Smiles Input	Measured On	log10(IC50)
Cn1c(=O)n(CC(=O)N2CCN(c3scnc3-c3nc4cc(Cl)c(Cl)cc4[nH]3)CC2)c2ccccc21	human CXCR3A (Homo sapiens (Human), UniProt P49682)	0.48
O=C(Cn1ccc2ccc(F)cc21)N1CCN(c2scnc2-c2nc3ccccc3[nH]2)CC1	human CXCR3A (Homo sapiens (Human), UniProt P49682)	0.60
C[C@@H]1CN(c2sc(C(F)(F)F)nc2-c2nc3ccccc3[nH]2)CCN1C(=O)Cn1ccc(C(F)(F)F)n1	human CXCR3A (Homo sapiens (Human), UniProt P49682)	0.00
O=C(Cn1ccc2cc(Cl)c(Cl)cc21)N1CCN(c2scnc2-c2nc3ccccc3[nH]2)CC1	human CXCR3A (Homo sapiens (Human), UniProt P49682)	1.18
Cc1nc(C)n(CC(=O)N2CCN(c3sc(C(F)(F)F)nc3-c3nc4ccc(-n5cncn5)cc4[nH]3)C[C@H]2C)n1	human CXCR3A (Homo sapiens (Human), UniProt P49682)	0.78
Cc1cc2cccnc2n1CC(=O)N1CCN(c2scnc2-c2nc3ccccc3[nH]2)CC1	human CXCR3A (Homo sapiens (Human), UniProt P49682)	1.49
C[C@@H]1CN(c2scnc2-c2nc3ccccc3[nH]2)CCN1C(=O)Cn1ccc2ncc(Cl)nc21	human CXCR3A (Homo sapiens (Human), UniProt P49682)	0.78
